meta.source: paper PMC3800558

TEST SYSTEM: UniProt:W0HHK8
Sequence (W0HHK8 1-385): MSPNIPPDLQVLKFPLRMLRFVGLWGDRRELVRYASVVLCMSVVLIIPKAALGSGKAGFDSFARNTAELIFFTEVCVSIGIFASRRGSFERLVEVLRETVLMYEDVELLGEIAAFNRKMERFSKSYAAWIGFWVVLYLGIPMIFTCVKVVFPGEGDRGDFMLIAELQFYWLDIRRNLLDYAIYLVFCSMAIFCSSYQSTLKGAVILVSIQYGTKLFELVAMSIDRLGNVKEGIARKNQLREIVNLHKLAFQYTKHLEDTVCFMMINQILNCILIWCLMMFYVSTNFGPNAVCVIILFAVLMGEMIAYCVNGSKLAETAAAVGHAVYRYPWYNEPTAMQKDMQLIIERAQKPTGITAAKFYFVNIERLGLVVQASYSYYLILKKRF
Sequence (Q309I4 1-480 partner): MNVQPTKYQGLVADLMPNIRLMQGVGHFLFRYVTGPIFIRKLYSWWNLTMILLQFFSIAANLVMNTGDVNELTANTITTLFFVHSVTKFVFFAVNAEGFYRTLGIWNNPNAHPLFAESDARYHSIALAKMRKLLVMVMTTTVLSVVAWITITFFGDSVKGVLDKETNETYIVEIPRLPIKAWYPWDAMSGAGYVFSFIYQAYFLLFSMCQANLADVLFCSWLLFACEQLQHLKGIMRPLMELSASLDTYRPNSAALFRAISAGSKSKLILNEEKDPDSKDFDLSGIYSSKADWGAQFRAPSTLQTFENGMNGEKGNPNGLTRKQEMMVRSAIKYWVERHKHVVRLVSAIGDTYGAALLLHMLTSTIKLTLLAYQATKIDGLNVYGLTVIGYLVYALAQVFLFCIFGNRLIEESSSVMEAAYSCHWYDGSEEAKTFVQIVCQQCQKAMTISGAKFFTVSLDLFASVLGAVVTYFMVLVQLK
Type: cell-based
PARAMETER: EC50 (µM)

STRUCTURE AS SMILES	RECORDED MEASUREMENT
Cc1ccc(O)cc1	6.4
CCc1ccc(O)cc1	18.2
